Each record here notes measured pEC50.
Target: hGcgR (Homo sapiens, UniProt P47871)
Sequence (P47871 26-477): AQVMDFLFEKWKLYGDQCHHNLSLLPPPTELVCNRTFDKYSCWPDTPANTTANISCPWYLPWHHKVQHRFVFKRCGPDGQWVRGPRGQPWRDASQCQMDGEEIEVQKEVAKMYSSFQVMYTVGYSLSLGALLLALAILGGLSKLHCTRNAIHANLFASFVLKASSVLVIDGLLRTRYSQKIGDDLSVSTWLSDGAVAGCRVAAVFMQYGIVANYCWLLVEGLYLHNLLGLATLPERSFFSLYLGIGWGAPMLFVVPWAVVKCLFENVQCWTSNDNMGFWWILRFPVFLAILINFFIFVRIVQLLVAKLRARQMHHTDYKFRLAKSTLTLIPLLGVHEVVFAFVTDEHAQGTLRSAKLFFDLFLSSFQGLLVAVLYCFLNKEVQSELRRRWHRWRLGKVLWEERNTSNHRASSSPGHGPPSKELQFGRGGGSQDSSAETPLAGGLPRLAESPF
Test: Functional cAMP activation in the presence of 0.1% casein (no HSA);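 note: intracellular cAMP rise after 30 min at 37 °C, read by HTRF against a cAMP standard curve, scaled from buffer only (0%) to maximal control ligand response (100%)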
Type: cell-based
Details: in the presence of 0.1% casein (no HSA); geometric mean; read-out: Relative cAMP EC50, hGcgR
pEC50: −log10 of the molar value. Starred links: 1 amine or outer side, 2 acyl side, 3 side chain; linkers in the order of their positions; H or OH if unused. Non-standard residues stand in square brackets, D forms with d. Groups on a side chain read outwards from the residue. No end group written: not given here. *: point of attachment. C18 diacid = O=C(O)CCCCCCCCCCCCCCCCC(=O)*; αMePhe(2-F) = C[C@](N)(Cc1ccccc1F)C(=O)O; γGlu = O=C(O)[C@H](CCC(=O)[*:2])N[*:1]; αMe4Pal = C[C@](N)(Cc1ccncc1)C(=O)O; αMeY = C[C@](N)(Cc1ccc(O)cc1)C(=O)O; 4Pal = N[C@@H](Cc1ccncc1)C(=O)O; αMeL = CC(C)C[C@](C)(N)C(=O)O; αMeS = C[C@](N)(CO)C(=O)O; Orn = NCCC[C@H](N)C(=O)O; AEEA = NCCOCCOCC(=O)O; Aib = CC(C)(N)C(=O)O

Substance	pEC50
H-Y[Aib]QGTFTSD[4Pal]SQ[αMeL]LD[Orn]K([γGlu-γGlu-C18 diacid])AQ[αMe4Pal]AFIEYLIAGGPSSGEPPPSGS-NH2 [Example 1007]	8.27
Y[Aib]QGT[αMePhe(2-F)]TSD[4Pal][αMeS]I[αMeL]LD[Orn]K([AEEA-γGlu-C18 diacid])AQ[αMe4Pal]EFI[dE][αMeY]LIEGGPPS[Aib]EPPPEGE-NH2 [Example 1190]	8.77
Y[Aib]QGTFTSD[4Pal]SQ[αMeL]LDKK([AEEA-γGlu-C18 diacid])AQ[αMe4Pal]AFIEWLIEGGPSSGAPPPSG[4Pal]-NH2 [Example 832]	8.04

Origin of the recorded values: patent US20240270821A1
